Biological target: mAChR M1 (UniProt P11229)
Assay: mAChR M1 cell-based functional assay (calcium mobilization, potentiation of EC20 acetylcholine response)
Conditions: % ACh maximum at 30 μM
# label = yes (1) if Emax >= 50% else no (0)

Reference set (3 entries):
                                   compound  assigned_label
0  Cn1cc(-c2ccc(CN3C(=O)C4(CCN(c5ncccn5)C4)c4ccccc43)c(F)c2)cn1 (stereo not drawn) [Compound B7]         yes (1)
1  Cn1cc(-c2ccc(CN3C(=O)C4(CCN(C5CCC5)CC4)c4ccccc43)c(F)c2)cn1 [Compound B66]          no (0)
2  Cn1cc(-c2ccc(CN3C(=O)C4(CCN(C5COC5)CC4)c4ccccc43)c(F)c2)cn1 [Compound B55]          no (0)

Entry Cn1cc(-c2ccc(CN3C(=O)C4(CCN(C5CCOC5)C4)c4ccccc43)c(F)c2)cn1 (stereo not drawn) [Compound B25] : is its Emax no less than 50%?
yes (1)

Entry Cn1cc(-c2ccc(CN3C(=O)C4(CCN(C5CCC5)C4)c4ccccc43)c(F)c2)cn1 (stereo not drawn) [Compound B14] : is its Emax no less than 50%?
yes (1)

Entry Cn1cc(-c2ccc(CN3C(=O)C4(CCN(C5CCNC5)CC4)c4ccccc43)c(F)c2)cn1 (stereo not drawn) [Compound B33] : is its Emax no less than 50%?
yes (1)

Entry Cn1cc(-c2ccc(CN3C(=O)C4(CCN(C5CCOCC5)CC4)c4ccccc43)c(F)c2)cn1 [Compound B69] : is its Emax no less than 50%?
no (0)

Entry Cn1cc(-c2ccc(CN3C(=O)C4(CCN(C5CCCOC5)C4)c4ccccc43)c(F)c2)cn1 (single isomer, unassigned) [Compound B67] : is its Emax no less than 50%?
no (0)

Entry CC(C)CN1CCC2(C1)C(=O)N(Cc1ccc(-c3cnn(C)c3)cc1F)c1ccccc12 (stereo not drawn) [Compound B49] : is its Emax no less than 50%?
yes (1)

The origin of these recorded values is patent US9073935B2.
